- measurement-target: bovine serum albumin (BSA) (Bos taurus, UniProt P02769)
- Sequence (P02769 25-607): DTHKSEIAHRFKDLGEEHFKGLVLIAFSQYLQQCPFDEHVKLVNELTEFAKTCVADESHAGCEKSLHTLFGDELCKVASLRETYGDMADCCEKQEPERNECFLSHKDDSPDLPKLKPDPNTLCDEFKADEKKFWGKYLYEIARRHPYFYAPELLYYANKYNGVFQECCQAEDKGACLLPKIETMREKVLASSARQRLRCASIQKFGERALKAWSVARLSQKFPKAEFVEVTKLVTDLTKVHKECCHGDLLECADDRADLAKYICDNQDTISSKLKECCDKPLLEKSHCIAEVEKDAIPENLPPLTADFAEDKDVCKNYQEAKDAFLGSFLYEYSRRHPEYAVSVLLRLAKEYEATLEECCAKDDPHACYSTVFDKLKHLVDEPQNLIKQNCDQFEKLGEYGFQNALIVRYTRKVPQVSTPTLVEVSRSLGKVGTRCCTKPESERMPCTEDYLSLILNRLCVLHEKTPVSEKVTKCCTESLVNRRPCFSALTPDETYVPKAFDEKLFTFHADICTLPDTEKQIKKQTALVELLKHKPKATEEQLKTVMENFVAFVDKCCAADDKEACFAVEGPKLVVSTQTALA
- protocol-text: Weak affinity chromatography of steroids on BSA columns (columns B, C)
- Assay type: binding
- test-settings: Kd, Column C, PBS buffer pH 7.4; BSA 99% purity
Each entry below carries its reported Kd.

C[C@]12C=CC(=O)C=C1CC[C@@H]1[C@@H]2[C@@H](O)C[C@@]2(C)[C@H]1CC[C@]2(O)C(=O)CO : 216 µM

Kindly review the next compound as well.
Please give the measured Kd for this compound: C[C@]12C=CC(=O)C=C1CC[C@@H]1[C@@H]2C(=O)C[C@@]2(C)[C@H]1CC[C@]2(O)C(=O)CO
250 µM

====

Recorded pKd for the following molecules
- measurement-target: bovine serum albumin (BSA) (Bos taurus)
- protocol-text: Weak affinity chromatography of steroids on BSA columns (columns B, C)
- Type: binding
- test-settings: Kd, Column C, 5 mM Am-Ac buffer pH 6.9; BSA 99% purity
# pKd is unitless: minus log10 of the molar concentration; print number only

C[C@]12C=CC(=O)C=C1CC[C@@H]1[C@@H]2C(=O)C[C@@]2(C)[C@H]1CC[C@]2(O)C(=O)CO [Prednisone, prednisone] : 3.59

Next molecule, pKd to be filled in.
Item: C[C@]12C=CC(=O)C=C1CC[C@@H]1[C@@H]2[C@@H](O)C[C@@]2(C)[C@H]1CC[C@]2(O)C(=O)CO [Prednisolone, prednisolone] Test system: bovine serum albumin (BSA) (Bos taurus) Read-out: pKd Value: ?
3.64

====

- measurement-target: bovine serum albumin (BSA) (Bos taurus, UniProt P02769)
- protocol-text: Weak affinity chromatography of steroids on BSA columns (columns B, C)
- Type: binding
- test-settings: Kd, Column B, PBS buffer pH 7.4; BSA 96% purity
readout-type: Kd (µM)
Hi! Could you send only the number? It should be in µM, unit omitted.

C[C@]12C=CC(=O)C=C1CC[C@@H]1[C@@H]2C(=O)C[C@@]2(C)[C@H]1CC[C@]2(O)C(=O)CO [Prednisone, prednisone] : 274

Find the recorded Kd belonging to C[C@]12C=CC(=O)C=C1CC[C@@H]1[C@@H]2[C@@H](O)C[C@@]2(C)[C@H]1CC[C@]2(O)C(=O)CO [Prednisolone, prednisolone] and report it.
230

====

Below is a list of entries, each paired with its recorded Kd value.
- measurement-target: bovine serum albumin (BSA) (Bos taurus)
- protocol-text: Weak affinity chromatography of steroids on BSA columns (columns B, C)
- Type: binding
- test-settings: Kd, Column B, 5 mM Am-Ac buffer pH 6.9; BSA 96% purity
Just the number please, in µM, no unit attached.

C[C@]12C=CC(=O)C=C1CC[C@@H]1[C@@H]2[C@@H](O)C[C@@]2(C)[C@H]1CC[C@]2(O)C(=O)CO [Prednisolone, prednisolone] : 257

Pending compound:
Which measured Kd value corresponds to C[C@]12C=CC(=O)C=C1CC[C@@H]1[C@@H]2C(=O)C[C@@]2(C)[C@H]1CC[C@]2(O)C(=O)CO [Prednisone, prednisone] ?
288

Every entry's value here was drawn from patent US9448243B2.
